assayed.target: 5-HT2A (Homo sapiens, UniProt P28223)
Sequence (P28223 whole entry): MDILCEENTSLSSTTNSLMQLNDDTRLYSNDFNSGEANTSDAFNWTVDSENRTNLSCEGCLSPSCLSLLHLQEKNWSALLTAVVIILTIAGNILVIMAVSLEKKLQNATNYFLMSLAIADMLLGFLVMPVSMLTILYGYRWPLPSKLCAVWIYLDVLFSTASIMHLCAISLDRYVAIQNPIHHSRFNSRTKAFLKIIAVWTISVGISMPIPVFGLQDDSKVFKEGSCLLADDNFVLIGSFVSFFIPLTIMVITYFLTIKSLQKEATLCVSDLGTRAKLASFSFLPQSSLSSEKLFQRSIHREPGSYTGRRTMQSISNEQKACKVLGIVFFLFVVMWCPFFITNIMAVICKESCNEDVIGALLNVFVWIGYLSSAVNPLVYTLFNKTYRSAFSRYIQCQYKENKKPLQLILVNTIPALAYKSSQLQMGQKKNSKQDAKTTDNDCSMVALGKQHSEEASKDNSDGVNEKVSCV
assay.procedure: Serotonin 5-HT2A in vitro cellular IPOne agonism assay (HTRF)
Type: cell-based
Design: host or cells: CHO-K1
condition.notes: CHO-K1 cells, agonist mode
Let's look at some compounds and their measured EC50.

NCCc1cnn2ccccc12 yielded EC50 of > 10 µM

CC(Cc1cnn2ccccc12)N(C)C (stereo not drawn) yielded EC50 of > 10 µM

###

assayed.target: 5-HT2A (Homo sapiens)
assay.procedure: Serotonin 5-HT2A in vitro cellular IPOne antagonism assay (HTRF)
Assay type: cell-based
Parameters: host or cells: CHO-K1
condition.notes: CHO-K1 cells, reference agonist α-Me-5HT; read-out: 5-HT2A IPOne Antagonist Activity
Experimental: Serotonin 5-HT2A In Vitro Cellular IPOne Antagonism Assay. The 5-HT2A IPOne HTRF assay was performed at Epics Therapeutics S.A. (Belgium, FAST-O0505) in antagonism mode using conventional methods. […] For antagonist testing, a reference agonist α-Me-5HT was added and fluorescence signal monitored for several minutes, followed by addition of 20 μl of assay buffer plus 20 μl of test compound or reference antagonist ketanserin, in each well. […]
pIC50: −log10 of the molar value.
parameter: pIC50

Worked examples follow.
c1ccn2c(CC3CCCN3)ncc2c1 (centres unmarked) [Compound 13]
5.00 to 6.00
CN(C)CCc1ncc2ccccn12 [Compound 14]
5.00 to 6.00
CC(Cc1ncc2ccccn12)N1CCCC1 (centres unmarked) [Compound 27]
5.00 to 6.00
CN1CCCC1Cc1ncc2ccccn12 (centres unmarked) [Compound 31]
6.00 to 7.00

// below: pIC50 requested for another compound
CC(C)(N)Cc1ncc2ccccn12 [Compound 6] yielded pIC50 of 6.00 to 7.00

###

assayed.target: 5-HT2A (Homo sapiens)
assay.procedure: Serotonin 5-HT2A in vitro radioligand binding competition assay ([3H]-DOI)
Parameters: purchased Epics Therapeutics S.A. (Belgium) FAST-0505B
condition.notes: [3H]-DOI radiotracer, membrane extracts
Experimental: Serotonin 5-HT2A In Vitro Radioligand Binding Competition Assay. The 5-HT2A radioligand binding competition assay was performed at Epics Therapeutics S.A. (Belgium, FAST-0505B) using conventional methods. […] Nonspecific binding was determined by co-incubation with 200-fold excess of cold competitor. […] The plates were incubated 15 min on an orbital shaker and then counted with a TopCount™ for 1 min/well.
parameter: IC50

Worked examples follow.
Cc1cccc2cnc(CC(C)N)n12 (stereo not shown)
1 to 10 µM
C[C@@H](Cc1ncc2ccccn12)N(C)C
1 to 10 µM

c1ccn2c(C3CCNC3)ncc2c1 (stereo not shown) yielded IC50 of 1 to 10 µM

CN(C)C(C)(C)Cc1ncc2ccccn12 yielded IC50 of 1 to 10 µM

Cc1ccc2cnc(CC(C)N(C)C)n2c1 (stereo not shown) yielded IC50 of > 10 µM

NCCc1ncn2ccccc12 yielded IC50 of 1 to 10 µM

COc1ccn2c(CC(C)N)ncc2c1 (stereo not shown) yielded IC50 of 1 to 10 µM

COc1ccn2c(CC(C)N)cnc2c1 (stereo not shown) yielded IC50 of > 10 µM

Cc1nc(CC(C)N(C)C)n2ccc(F)cc12 (stereo not shown) yielded IC50 of 1 to 10 µM

CC(Cc1ncc2ccccn12)N1CCCC1 (stereo not shown) yielded IC50 of 1 to 10 µM

CC(Cc1ncc2ccccn12)N(C)C (stereo not shown) yielded IC50 of 1 to 10 µM

COc1ccn2c(CC(C)N(C)C)cnc2c1 (stereo not shown) yielded IC50 of > 10 µM

CC(Cc1cnn2ccccc12)N(C)C (stereo not shown) yielded IC50 of > 10 µM

CN(C)CCc1ncn2ccccc12 yielded IC50 of 1 to 10 µM

###

assayed.target: 5-HT2A (Homo sapiens)
assay.procedure: Serotonin 5-HT2A in vitro cellular IPOne antagonism assay (HTRF)
Assay type: cell-based
Set-up: host or cells: CHO-K1
condition.notes: CHO-K1 cells, reference agonist α-Me-5HT; read-out: 5-HT2A IPOne Antagonist Activity
Let's look at some compounds and their measured IC50.

Worked examples follow.
CC(N)Cc1ncc2cc(F)ccn12 (stereo not drawn) [Compound 4]
1000 to 10000 nM
CC(C)NC(C)Cc1ncc2ccccn12 (stereo not drawn) [Compound 26]
101 to 1000 nM
CC(Cc1ncc2ccccn12)N(C)C (stereo not drawn) [Compound 15]
1000 to 10000 nM
c1ccn2c(C3CCNC3)ncc2c1 (stereo not drawn) [Compound 12]
1000 to 10000 nM
CC(Cc1ncn2ccccc12)N(C)C (stereo not drawn) [Compound 44]
101 to 1000 nM

C[C@H](Cc1ncc2ccccn12)N(C)C [Compound 30] yielded IC50 of 1000 to 10000 nM

CN1CCC(c2ncc3ccccn23)C1 (stereo not drawn) [Compound 32] yielded IC50 of 1000 to 10000 nM

Cc1cccn2c(CC(C)N)ncc12 (stereo not drawn) [Compound 8] yielded IC50 of > 10000 nM

CN(C)C(C)(C)Cc1ncc2ccccn12 [Compound 19] yielded IC50 of 1000 to 10000 nM

Cc1ccn2c(CC(C)N)ncc2c1 (stereo not drawn) [Compound 9] yielded IC50 of > 10000 nM

CN(C)CCc1ncn2ccccc12 [Compound 43] yielded IC50 of 101 to 1000 nM

CC(Cc1ncc2cc(F)ccn12)N(C)C (stereo not drawn) [Compound 17] yielded IC50 of 101 to 1000 nM

###

assayed.target: UniProtKB P28223
assay.procedure: Serotonin 5-HT2A in vitro cellular IPOne agonism assay (HTRF)
condition.notes: CHO-K1 cells, agonist mode
pEC50: −log10 of the molar value.
parameter: pEC50

Worked examples follow.
NCCc1ncc2ccccn12 [Compound 1]
< 5.00
CN(C)CCc1cnn2ccccc12 [Compound 49]
< 5.00
c1ccn2c(CC3CCCN3)ncc2c1 (stereo not shown) [Compound 13]
< 5.00

CC(Cc1cnc2ccccn12)N(C)C (stereo not shown) [Compound 36] yielded pEC50 of < 5.00

CC(Cc1ncc2ccccn12)N1CCOCC1 (stereo not shown) [Compound 28] yielded pEC50 of < 5.00

Cc1cccc2cnc(CC(C)N)n12 (stereo not shown) [Compound 7] yielded pEC50 of 5.00 to 6.00

Cc1nc(CC(C)N)c2ccc(F)cn12 (stereo not shown) [Compound 42] yielded pEC50 of 5.00 to 6.00

COc1ccn2c(CC(C)N(C)C)cnc2c1 (stereo not shown) [Compound 37] yielded pEC50 of < 5.00

CC(N)Cc1ncn2ccccc12 (stereo not shown) [Compound 40] yielded pEC50 of < 5.00

COc1ccn2c(CC(C)N)ncc2c1 (stereo not shown) [Compound 3] yielded pEC50 of < 5.00

Cc1nc(CC(C)N)n2ccccc12 (stereo not shown) [Compound 11] yielded pEC50 of 5.00 to 6.00

CC(C)NC(C)Cc1ncc2ccccn12 (stereo not shown) [Compound 26] yielded pEC50 of < 5.00

Cc1ccn2c(CC(C)N)ncc2c1 (stereo not shown) [Compound 9] yielded pEC50 of 5.00 to 6.00

CN(C)C(C)(C)Cc1ncc2ccccn12 [Compound 19] yielded pEC50 of < 5.00

CC(Cc1ncc2cc(F)ccn12)N(C)C (stereo not shown) [Compound 17] yielded pEC50 of < 5.00

CC(N)Cc1cnc2cc(F)ccn12 (stereo not shown) [Compound 35] yielded pEC50 of < 5.00

###

Let's look at some compounds and their measured EC50.
assayed.target: 5-HT2A (Homo sapiens, UniProt P28223)
assay.procedure: Serotonin 5-HT2A in vitro cellular IPOne agonism assay (HTRF)
condition.notes: CHO-K1 cells, agonist mode

CC(N)Cc1ncc2ccccn12 (stereo not shown) [Compound 2]
0.101 to 1 µM
Cc1ccn2c(CC(C)N(C)C)ncc2c1 (stereo not shown) [Compound 22]
> 10 µM
Cc1nc(CC(C)N)n2ccc(F)cc12 (stereo not shown) [Compound 5]
1 to 10 µM

CN1CCC(c2ncc3ccccn23)C1 (stereo not shown) [Compound 32] yielded EC50 of > 10 µM

COc1ccn2c(CC(C)N)cnc2c1 (stereo not shown) [Compound 34] yielded EC50 of > 10 µM

Cc1nc(CCN)c2ccccn12 [Compound 41] yielded EC50 of > 10 µM

###

Let's look at some compounds and their measured pIC50.
assayed.target: 5-HT2A (Homo sapiens, UniProt P28223)
assay.procedure: Serotonin 5-HT2A in vitro radioligand binding competition assay ([3H]-DOI)
Set-up: purchased Epics Therapeutics S.A. (Belgium) FAST-0505B
condition.notes: [3H]-DOI radiotracer, membrane extracts
pIC50: −log10 of the molar value.

Cc1nc(CCN(C)C)c2ccccn12 [Compound 45]
< 5.00
NCCc1ncc2ccccn12 [Compound 1]
5.00 to 6.00
c1ccn2c(CC3CCCN3)ncc2c1 (centres unmarked) [Compound 13]
5.00 to 6.00

NCCc1cnn2ccccc12 [Compound 47] yielded pIC50 of < 5.00

CN1CCC(c2ncc3ccccn23)C1 (centres unmarked) [Compound 32] yielded pIC50 of 6.00 to 7.00

Cc1cccn2c(CC(C)N(C)C)ncc12 (centres unmarked) [Compound 21] yielded pIC50 of 5.00 to 6.00

CC(Cc1ncc2cc(F)ccn12)N(C)C (centres unmarked) [Compound 17] yielded pIC50 of 6.00 to 7.00

CC(N)Cc1cnc2cc(F)ccn12 (centres unmarked) [Compound 35] yielded pIC50 of < 5.00

CC(N)Cc1cnn2ccccc12 (centres unmarked) [Compound 48] yielded pIC50 of < 5.00

Cc1cccc2cnc(CC(C)N(C)C)n12 (centres unmarked) [Compound 20] yielded pIC50 of < 5.00

CC(Cc1cnc2ccccn12)N(C)C (centres unmarked) [Compound 36] yielded pIC50 of < 5.00
